Test system: thoracic aorta (albino rabbit, helical strips, endothelium removed)
Experiment: In vitro screening of NO donors: relaxation of endothelium-denuded rabbit thoracic aorta strips, before and after GTN-induced tolerance
Type: cell-based
Details: relative to GTN, before tolerance
Mean Relative Potency Before Tolerance class ranges: low (below 0.2), moderate (0.2 to below 0.3), high (0.3 or more)

compound | study_system | class_assignment
CC(O)COC(=O)c1ccc2c(c1)no[n+]2[O-] (stereo not shown) | thoracic aorta (albino rabbit, helical strips, endothelium removed) | moderate
O=C(OCC(O)CO)c1ccc2c(c1)no[n+]2[O-] (stereo not shown) | thoracic aorta (albino rabbit, helical strips, endothelium removed) | low
O=C(OCCN1CCOCC1)c1ccc2c(c1)no[n+]2[O-] | thoracic aorta (albino rabbit, helical strips, endothelium removed) | low
COCCOC(=O)c1ccc2c(c1)no[n+]2[O-] | thoracic aorta (albino rabbit, helical strips, endothelium removed) | high
O=C(OCCN1CCCC1=O)c1ccc2c(c1)no[n+]2[O-] | thoracic aorta (albino rabbit, helical strips, endothelium removed) | low
CC1(C)OCC(COC(=O)c2ccc3c(c2)no[n+]3[O-])O1 (racemic) | thoracic aorta (albino rabbit, helical strips, endothelium removed) | high
O=C(OCc1cccnc1)c1ccc2c(c1)no[n+]2[O-] | thoracic aorta (albino rabbit, helical strips, endothelium removed) | high
O=C(NCCOC(=O)c1ccc2c(c1)no[n+]2[O-])c1ccncc1 | thoracic aorta (albino rabbit, helical strips, endothelium removed) | low
O=C(OC1COC2C(O[N+](=O)[O-])COC12)c1ccc2c(c1)no[n+]2[O-] (stereo not shown) | thoracic aorta (albino rabbit, helical strips, endothelium removed) | moderate
